Data provenance is PubChem BioAssay (NCATS).

Test system: CRL-7250
Assay: Cytotoxic Profiling of Annotated Libraries Using Quantitative High-Throughput Screening (AID 1296008); further: on the % scale 0 is the no-effect control and ±100 the full control effect; nearly all actives have a fitted effect of over 60% in size
Details: Five cell lines viability, CellTiter-Glo ATP luminescence, 48-72 h; active compounds read low
Inconclusive results are not listed.
Consider the following molecules and their measured max response readings.
ENDPOINT: max response (%)

[[record]]
molecule = "C[C@@H](O)[C@H]1C(=O)N2C(C(=O)O)=C(S[C@@H]3CN[C@H](CNS(N)(=O)=O)C3)[C@H](C)[C@H]12"
unit = "%"
meas_value = -1.21

[[record]]
molecule = "CCC(CC)(CC(=O)Nc1cccc(/C=C/c2nc(C3CCC3)cs2)c1)C(=O)O"
unit = "%"
meas_value = 2.29

[[record]]
molecule = "CC(=O)Nc1ccc(S(=O)(=O)Nc2ccc([N+](=O)[O-])cc2)cc1"
unit = "%"
meas_value = -4.42

[[record]]
molecule = "COc1ccc(CN(CCN(C)C)c2ncccn2)cc1"
unit = "%"
meas_value = 0.19

[[record]]
molecule = "C#C[C@]1(O)CC[C@H]2[C@@H]3CCc4cc(OC)ccc4[C@H]3CC[C@@]21C"
unit = "%"
meas_value = -13.3

[[record]]
molecule = "CC(=O)Nc1ncc([N+](=O)[O-])s1"
unit = "%"
meas_value = 2.19

[[record]]
molecule = "O=S(=O)(O)c1ccc(O)cc1"
unit = "%"
meas_value = -8.14

[[record]]
molecule = "CCN(CC)CCOC(=O)C(Cc1cccc2ccccc12)CC1CCCO1 (stereo unspecified)"
unit = "%"
meas_value = -0.146

[[record]]
molecule = "O=C(O)CCNC(=O)c1ccccc1"
unit = "%"
meas_value = 4.33

[[record]]
molecule = "O=C(O)Cc1csc(-c2ccc(Cl)cc2)n1"
unit = "%"
meas_value = -17.8

[[record]]
molecule = "FC1(F)C(F)(F)C(F)(F)C2(F)C(F)(F)C(F)(F)C(F)(F)C(F)(F)C2(F)C1(F)F (stereo unspecified)"
unit = "%"
meas_value = 4.26


---

Assay: qHTS of pediatric cancer cell lines to identify multiple opportunities for drug repurposing: Primary screen for SK-N-SH cells (AID 1347098); further: nearly all actives have a fitted effect of over 65% in size
Conditions: SK-N-SH viability, CellTiter-Glo luminescence, 48 h; series mostly up to 57 µM
Inconclusive results are not listed. Calls of active or inactive are those of the source. Calls come from the whole dose curve; as a rule, active = well fitted cell-killing curve with a large enough effect; inconclusive = small, poorly fitted or top-dose-only effect; inactive = no such curve, though single readings can be large or run the other way.
Possible outcomes: yes (1) (active), no (0) (inactive)

[[record]]
molecule = "Clc1cccc(C(c2ccc3nc[nH]c3c2)n2ccnc2)c1 (centres undefined)"
category_label = "no (0)"

[[record]]
molecule = "CCOc1ccccc1C(N)=O"
category_label = "yes (1)"

[[record]]
molecule = "CC[N+](C)(CC)CCOC(=O)C(O)(c1ccccc1)C1CCCCC1 (centres undefined)"
category_label = "no (0)"

[[record]]
molecule = "FC1(F)C(F)(F)C(F)(F)C2(F)C(F)(F)C(F)(F)C(F)(F)C(F)(F)C2(F)C1(F)F (centres undefined)"
category_label = "no (0)"

[[record]]
molecule = "Cc1cccc(C)c1NC(=O)c1ccccc1C(=O)O"
category_label = "no (0)"

[[record]]
molecule = "O=c1[nH]c(=O)n([C@H]2C[C@H](O)[C@@H](CO)O2)cc1F"
category_label = "no (0)"

[[record]]
molecule = "C#C[C@]1(O)CC[C@H]2[C@@H]3CCC4=CC(=O)CC[C@@H]4[C@H]3CC[C@@]21CC"
category_label = "no (0)"

[[record]]
molecule = "C[N+]1(CC2COC(c3ccccc3)(C3CCCCC3)O2)CCCCC1 (centres undefined)"
category_label = "no (0)"

[[record]]
molecule = "CC(=O)O[C@]1(C(C)=O)CC[C@H]2[C@@H]3C=C(C)C4=CC(=O)CC[C@]4(C)[C@H]3CC[C@@]21C"
category_label = "no (0)"

[[record]]
molecule = "CCc1oc2ccccc2c1C(=O)c1cc(I)c(O)c(I)c1"
category_label = "no (0)"

[[record]]
molecule = "CCCCC(CC)CN1CN(CC(CC)CCCC)CC(C)(N)C1 (centres undefined)"
category_label = "no (0)"

[[record]]
molecule = "Cl/C(=C\\n1cncn1)c1ccc(Cl)cc1Cl"
category_label = "no (0)"

[[record]]
molecule = "CC(=O)Nc1ncc([N+](=O)[O-])s1"
category_label = "no (0)"

[[record]]
molecule = "CCCCCCCCNC(C)C(O)c1ccc(SC(C)C)cc1 (centres undefined)"
category_label = "yes (1)"

[[record]]
molecule = "CC(C)NCC(O)c1ccc2ccccc2c1 (centres undefined)"
category_label = "no (0)"

[[record]]
molecule = "CCCCCCCCCCC[C@@H](C[C@@H]1OC(=O)[C@H]1CCCCCC)OC(=O)[C@H](CC(C)C)NC=O"
category_label = "no (0)"

[[record]]
molecule = "C[C@@]12C(=O)OC(=O)[C@]1(C)C1CCC2O1"
category_label = "yes (1)"

[[record]]
molecule = "CCCCCCCCCCCCCC(=O)OC(C)C"
category_label = "no (0)"

[[record]]
molecule = "O=C(Nc1ncc([N+](=O)[O-])s1)c1cccs1"
category_label = "yes (1)"

[[record]]
molecule = "Nc1ccc(S(=O)(=O)NCc2ccccc2)cc1"
category_label = "no (0)"

[[record]]
molecule = "C#C[C@]1(O)CC[C@H]2[C@@H]3CCC4=Cc5oncc5C[C@]4(C)[C@H]3CC[C@@]21C"
category_label = "no (0)"

[[record]]
molecule = "Nc1nc(N)c(-c2ccccc2)s1"
category_label = "no (0)"

[[record]]
molecule = "O=C(O)c1ccc(S(=O)(=O)N(Cl)Cl)cc1"
category_label = "no (0)"

[[record]]
molecule = "C[C@@H](O)[C@H]1C(=O)N2C(C(=O)O)=C([C@H]3CCCO3)S[C@H]12"
category_label = "no (0)"

[[record]]
molecule = "Cc1ncc(CO)c(C=O)c1O"
category_label = "no (0)"

[[record]]
molecule = "CCCCCCCCCCCCSCCOCCO"
category_label = "no (0)"

[[record]]
molecule = "CCNC(=O)NCc1cccc(Cl)c1"
category_label = "no (0)"

[[record]]
molecule = "CCOc1cc(OCC)c(C(=O)CCC(=O)O)cc1OCC"
category_label = "no (0)"

[[record]]
molecule = "CC1(C)OC[C@@H]2O[C@@]3(C(=O)O)OC(C)(C)O[C@H]3[C@@H]2O1"
category_label = "no (0)"

[[record]]
molecule = "CCc1cc(Cl)c(OC)c(C(=O)NC[C@@H]2CCCN2CC)c1O"
category_label = "no (0)"

[[record]]
molecule = "Cc1ccc(S(=O)(=O)NC(=O)NC2CCCC2)cc1"
category_label = "no (0)"

[[record]]
molecule = "CCCCCCCCCCCCCCC[C@H](O)[C@@H](N)CO"
category_label = "no (0)"

[[record]]
molecule = "CCCCN1C[C@H](O)[C@@H](O)[C@H](O)[C@H]1CO"
category_label = "no (0)"

[[record]]
molecule = "N#C/C(=C1\\SCC(c2ccccc2Cl)S1)n1ccnc1 (centres undefined)"
category_label = "no (0)"

[[record]]
molecule = "O=S(c1cc(Cl)cc(Cl)c1O)c1cc(Cl)cc(Cl)c1O"
category_label = "no (0)"

[[record]]
molecule = "CC(=C(CCOC(=O)C(C)C)SSC(CCOC(=O)C(C)C)=C(C)N(C=O)Cc1cnc(C)nc1N)N(C=O)Cc1cnc(C)nc1N"
category_label = "no (0)"

[[record]]
molecule = "NS(=O)(=O)Cc1noc2ccccc12"
category_label = "no (0)"

[[record]]
molecule = "COc1cc(NS(=O)(=O)c2ccc(N)cc2)ncn1"
category_label = "no (0)"

[[record]]
molecule = "Cc1cc(CC(=O)O)c(C)n1-c1ccc(Cl)cc1"
category_label = "no (0)"

[[record]]
molecule = "CCCc1ncc(C[n+]2ccccc2C)c(N)n1"
category_label = "no (0)"

[[record]]
molecule = "O=[N+]([O-])c1ccc(/C=N\\O)o1"
category_label = "no (0)"

[[record]]
molecule = "CN1CCN(C2=Nc3ccccc3Sc3ccc(Cl)cc32)CC1"
category_label = "no (0)"

[[record]]
molecule = "CCCCC(CC)COC(=O)/C=C/c1ccc(OC)cc1 (centres undefined)"
category_label = "no (0)"

[[record]]
molecule = "CCC(CC)(CC(=O)Nc1cccc(/C=C/c2nc(C3CCC3)cs2)c1)C(=O)O"
category_label = "no (0)"

